Data provenance: PubChem BioAssay AID1159580

Test: chemical genetic growth profiling, strain panel (AID 1159580);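 further: tested at 20 µM; growth read once vehicle control cultures reached saturation at 30 °C; 1 = growth at the plate median or of vehicle wells; lower values mean less growth of the strain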
Conditions: S. cerevisiae deletion strains, growth OD, locus YER002W, strain NOP16, stronger effect = lower value
The campaign covered roughly 5,500 compounds. About 2,000 (36%) were called active. Inconclusive results (about 18%) are left out. The list shows a part of the results.
observedProperty: normalized growth
Write the value as a bare number.

// worked examples, normalized growth included
O=c1c(-c2ccc(O)cc2)coc2cc(O)cc(O)c12: 0.996
NCCCCNS(=O)(=O)c1cccc2c(Cl)cccc12: 1.01
N#CC(C#N)=Cc1ccc([N+](=O)[O-])c(O)c1: 0.956
NCCNC(=O)Cc1ccc(NC(=O)Cc2ccc(Nc3ncnc4c3ncn4[C@@H]3O[C@H](CO)[C@H](O)C3O)cc2)cc1 (stereo partly drawn): 0.999
CC(=O)/C(C)=N\O: 0.994

Query: Given the entry `CN1C[C@@H](CS(=O)(=O)N(C)C)C[C@@H]2c3cccc4c3c(cn4C)C[C@H]21` , report its measured normalized growth.
Result: 1.01

Query: Please answer likewise for `O=c1[nH]c2cc(Cl)c(Cl)cc2[nH]c1=O`
Result: 0.997

Query: Please answer likewise for `CN1CCc2ccccc2Cc2[nH]c3ccccc3c2CC1`
Result: 0.996

Query: Please answer likewise for `CC(=O)Oc1cc(C(C)C)c(OCCN(C)C)cc1C`
Result: 1.03

Query: Please answer likewise for `Nc1ccc(N2C(=O)c3ccccc3C2=O)c(Cl)c1`
Result: 0.974

Query: Please answer likewise for `CCN1CCC[C@H]1CNC(=O)c1c(O)c(Cl)cc(Cl)c1OC`
Result: 0.998

Query: Please answer likewise for CCNC(=O)[C@H]1O[C@@H](n2cnc3c(N)nc(NCCc4ccc(CCC(=O)O)cc4)nc32)C(O)[C@H]1O (stereo partly drawn)
Result: 0.995

Query: Please answer likewise for `O=C(c1cc(O)c(O)c([N+](=O)[O-])c1)c1ccccc1F`
Result: 0.978

Query: Please answer likewise for CC(=O)[C@H]1CCC2C3CC=C4C[C@@H](OS(=O)(=O)O)CC[C@]4(C)C3CC[C@@]21C (stereo partly drawn)
Result: 0.979

Query: Please answer likewise for `C[N+]1(CCCCC[N+]2(C)CCCC2)CCCC1`
Result: 1.01

Query: Please answer likewise for CC1(NCC(O)COc2cccc3[nH]ccc23)CCC(C(C)(C)NC(=O)CBr)CC1 (stereo not drawn)
Result: 1.03

Query: Please answer likewise for O=C(O)C1CN(CCCP(=O)(O)O)CCN1 (stereo not drawn)
Result: 0.975

====

Measured normalized growth, listed per entry for reference.
Experiment: chemical genetic growth profiling, strain panel (AID 1159580);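 further: tested at 20 µM; growth read once vehicle control cultures reached saturation at 30 °C; 1 = growth at the plate median or of vehicle wells; lower values mean less growth of the strain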
Conditions: S. cerevisiae deletion strains, growth OD, locus YDR001C, strain nth1, stronger effect = lower value
The campaign covered roughly 5,500 compounds. About 2,000 (36%) were called active. About 18% were inconclusive and are not listed. The list shows a part of the results.
Write the value as a bare number.

// worked examples, normalized growth included
COc1cc([C@@H]2c3cc4c(cc3[C@H](OC(C)=O)[C@H]3COC(=O)[C@H]23)OCO4)cc(OC)c1OC: 0.999
CN(C)CCC=C1c2ccccc2C=Cc2ccccc21: 0.983
O=c1cc(-c2cccc(O)c2)oc2ccc(O)cc12: 0.943
CC1(C)O[C@@H]2CC3C4C[C@H](F)C5=CC(=O)C=C[C@]5(C)[C@@]4(F)[C@@H](O)C[C@]3(C)[C@]2(C(=O)CO)O1 (stereo partly specified): 1.02
CC[C@]12C=CCN3CC[C@@]4(c5ccc(OC)cc5N(C)C4[C@@](O)(C(=O)OC)[C@@H]1OC(C)=O)[C@@H]32 (stereo partly specified): 1.02
C=CCCCCCCCCCCCC(O)CC(O)CO (stereo unspecified): 0.987

Query: Given the entry `CNCCC=C1c2ccccc2CCc2ccccc21` , report its measured normalized growth.
Result: 0.986
